- TEST_CONTEXT: 298.15 K; 101.3 kPa; Liquid
RESULT_TYPE: mass density (kg/m3)

>>> print(df.to_string())
                                   molecule  output_unit      val
0           CC(C)OC(C)C [diisopropyl ether]        kg/m3  718.289
1                   CCCCCl [1-chlorobutane]        kg/m3  880.705
2     CC(C)(C)Cl [2-chloro-2-methylpropane]        kg/m3  837.096
3  CCC(C)Cl (stereo not given) [2-chlorobutane]        kg/m3  867.474
4       CC(C)CCl [1-chloro-2-methylpropane]        kg/m3  871.533

###

Known mass density of a selection of molecules
- TEST_CONTEXT: 303.15 K; 101.3 kPa; Liquid
RESULT_TYPE: mass density (kg/m3)

In [3]: df
Out[3]:
                                   molecule      val
0  CCC(C)Cl (stereo not given) [2-chlorobutane]  861.779
1                   CCCCCl [1-chlorobutane]  875.204
2       CC(C)CCl [1-chloro-2-methylpropane]  866.096
3           CC(C)OC(C)C [diisopropyl ether]  713.032
4     CC(C)(C)Cl [2-chloro-2-methylpropane]  830.958

###

- TEST_CONTEXT: 308.15 K; 101 kPa; Liquid; Capillary tube (Ostwald / Ubbelohde) method
Given measured viscosity, output class 1 if it is greater than or equal to 0.4 mPa·s and class 0 if not.

>>> print(df.to_string())
                                   molecule    group
0           CC(C)OC(C)C [diisopropyl ether]  class 0
1  CCC(C)Cl (stereo not given) [2-chlorobutane]  class 0
2     CC(C)(C)Cl [2-chloro-2-methylpropane]  class 1

###

- TEST_CONTEXT: 313.15 K; 101.3 kPa; Liquid
RESULT_TYPE: mass density (kg/m3)

>>> print(df.to_string())
                      compound   result_type      val
0                   CC(C)(C)Cl  mass density  818.536
1  CCC(C)Cl (stereo not given)  mass density  850.266
2                  CC(C)OC(C)C  mass density  702.378
3                     CC(C)CCl  mass density  853.902
4                       CCCCCl  mass density  863.882

###

Known mass density of a selection of molecules
- TEST_CONTEXT: 308.15 K; 101.3 kPa; Liquid
RESULT_TYPE: mass density (kg/m3)

>>> df
                      molecule   result_type      val
0                   CC(C)(C)Cl  mass density  824.772
1                     CC(C)CCl  mass density  860.319
2                  CC(C)OC(C)C  mass density  707.727
3                       CCCCCl  mass density  869.585
4  CCC(C)Cl (stereo not given)  mass density  856.044

// data source = the NIST ThermoML archive (doi:10.1007/s10765-010-0737-5)
